binding signal values, listed per item
# Tested target: GST-Nv-NF-kB (Cys allele) (Nematostella vectensis, UniProt E5G601 2-411)
# Sequence: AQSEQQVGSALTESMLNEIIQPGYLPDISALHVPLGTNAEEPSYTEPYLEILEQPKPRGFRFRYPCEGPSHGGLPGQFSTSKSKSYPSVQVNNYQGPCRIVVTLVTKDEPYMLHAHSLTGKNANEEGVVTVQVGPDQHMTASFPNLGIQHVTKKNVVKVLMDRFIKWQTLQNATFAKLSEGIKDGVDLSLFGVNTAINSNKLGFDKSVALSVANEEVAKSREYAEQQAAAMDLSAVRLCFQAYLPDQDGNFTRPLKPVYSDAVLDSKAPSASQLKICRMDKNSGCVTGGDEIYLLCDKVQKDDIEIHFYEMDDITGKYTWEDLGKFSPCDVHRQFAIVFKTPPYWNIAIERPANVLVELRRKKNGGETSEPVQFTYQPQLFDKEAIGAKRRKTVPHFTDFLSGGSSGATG
# Protocol details: protein-binding microarray (PBM); PBM: ~300 nM protein, 6 mM HEPES pH 7.8, 80 mM KCl, 0.5 mM EDTA, 0.5 mM EGTA, 6% glycerol, 35 ng/ul poly-dIdC, 1% milk, 1 h, room temperature; Ap Aiptasia and Nv Nematostella (sea anemones) / Co Capsaspora / Aq Amphimedon (sponge) / Dm Drosophila / Hu human; RHD is the Rel homology domain; high values mean tight binding
# Setup conditions: dsDNA, one strand shown
Measured property: binding signal

1. CCGATTAACATCAATTGGGAAAATGATGTTAATCGGGTCTTGATTCGCTTGACGCTGCTG :: 2.96 z-score
2. CCGATTAACATCAAAGGTCCCCCTGATGTTAATCGGGTCTTGATTCGCTTGACGCTGCTG :: 4.14 z-score
3. CCGATTAACATCACGGGAACTCCTGATGTTAATCGGGTCTTGATTCGCTTGACGCTGCTG :: 2.3 z-score
4. CCGATTAACATCAATACACCCCCTGATGTTAATCGGGTCTTGATTCGCTTGACGCTGCTG :: 2.95 z-score
5. CCGATTAACATCAAAATTCCCATTGATGTTAATCGGGTCTTGATTCGCTTGACGCTGCTG :: 6.03 z-score
6. CCGATTAACATCAGACATTCCCATGATGTTAATCGGGTCTTGATTCGCTTGACGCTGCTG :: 2.27 z-score
7. CCGATTAACATCAACGGGAATTCTGATGTTAATCGGGTCTTGATTCGCTTGACGCTGCTG :: 5.7 z-score
8. CCGATTAACATCAAGCACCCCCCTGATGTTAATCGGGTCTTGATTCGCTTGACGCTGCTG :: 3.3 z-score
9. CCGATTAACATCAGATAAACCCCTGATGTTAATCGGGTCTTGATTCGCTTGACGCTGCTG :: 4.29 z-score
10. CCGATTAACATCAGGGAAACTAATGATGTTAATCGGGTCTTGATTCGCTTGACGCTGCTG :: 3.94 z-score
11. CCGATTAACATCACGGGGTTTCCTGATGTTAATCGGGTCTTGATTCGCTTGACGCTGCTG :: 4.79 z-score
12. CCGATTAACATCAAACATTCCCATGATGTTAATCGGGTCTTGATTCGCTTGACGCTGCTG :: 3.21 z-score
13. CCGATTAACATCAAATTCCCGTATGATGTTAATCGGGTCTTGATTCGCTTGACGCTGCTG :: 4.38 z-score
14. CCGATTAACATCAGGAATTACCATGATGTTAATCGGGTCTTGATTCGCTTGACGCTGCTG :: 1.38 z-score
15. CCGATTAACATCATGCGGGAAAATGATGTTAATCGGGTCTTGATTCGCTTGACGCTGCTG :: 3.71 z-score
16. CCGATTAACATCACGAAATTCCCTGATGTTAATCGGGTCTTGATTCGCTTGACGCTGCTG :: 6.78 z-score
17. CCGATTAACATCAAACTACCCCCTGATGTTAATCGGGTCTTGATTCGCTTGACGCTGCTG :: 4.01 z-score
18. CCGATTAACATCAGGGAAGACGTTGATGTTAATCGGGTCTTGATTCGCTTGACGCTGCTG :: 1.64 z-score
19. CCGATTAACATCAAAATACCCCGTGATGTTAATCGGGTCTTGATTCGCTTGACGCTGCTG :: 5.39 z-score
20. CCGATTAACATCAATGGGAAAATTGATGTTAATCGGGTCTTGATTCGCTTGACGCTGCTG :: 4.28 z-score
21. CCGATTAACATCAGGGGAAGGACTGATGTTAATCGGGTCTTGATTCGCTTGACGCTGCTG :: 4.53 z-score
22. CCGATTAACATCAGGAAAACCCATGATGTTAATCGGGTCTTGATTCGCTTGACGCTGCTG :: 2.25 z-score
23. CCGATTAACATCAGTCCCTAAGCTGATGTTAATCGGGTCTTGATTCGCTTGACGCTGCTG :: 3.07 z-score
24. CCGATTAACATCAGGAACCTCCCTGATGTTAATCGGGTCTTGATTCGCTTGACGCTGCTG :: 2.34 z-score
25. CCGATTAACATCAGAAAATCCCATGATGTTAATCGGGTCTTGATTCGCTTGACGCTGCTG :: 4.29 z-score
26. CCGATTAACATCACCCCCCCCCGTGATGTTAATCGGGTCTTGATTCGCTTGACGCTGCTG :: 5.51 z-score
27. CCGATTAACATCAAACACCCCCCTGATGTTAATCGGGTCTTGATTCGCTTGACGCTGCTG :: 4.54 z-score
28. CCGATTAACATCAAAAAACCCCTTGATGTTAATCGGGTCTTGATTCGCTTGACGCTGCTG :: 8.78 z-score
29. CCGATTAACATCAAAGTGGGAAATGATGTTAATCGGGTCTTGATTCGCTTGACGCTGCTG :: 3.3 z-score
30. CCGATTAACATCAAATTTCCCAGTGATGTTAATCGGGTCTTGATTCGCTTGACGCTGCTG :: 3.48 z-score
31. CCGATTAACATCAAGGAATCCCCTGATGTTAATCGGGTCTTGATTCGCTTGACGCTGCTG :: 9.72 z-score
32. CCGATTAACATCAAACATCCCCCTGATGTTAATCGGGTCTTGATTCGCTTGACGCTGCTG :: 6.38 z-score
33. CCGATTAACATCAAAGTCCCCCTTGATGTTAATCGGGTCTTGATTCGCTTGACGCTGCTG :: 6.84 z-score
34. CCGATTAACATCAGGGTAAACCCTGATGTTAATCGGGTCTTGATTCGCTTGACGCTGCTG :: 4.05 z-score
35. CCGATTAACATCAGGTAATCCCATGATGTTAATCGGGTCTTGATTCGCTTGACGCTGCTG :: 1.6 z-score
36. CCGATTAACATCAAGGGAGTCCCTGATGTTAATCGGGTCTTGATTCGCTTGACGCTGCTG :: 4.59 z-score
